Reference for the values: PubChem BioAssay

- assay-overview: reversal of MRP1-mediated doxorubicin resistance, pilot screen, H69AR cells, doxorubicin co-treatment (AID 601)
- particulars: H69AR cells + 2 uM doxorubicin, CellTiter-Glo, 72 h; at 10 µM; stronger effect = higher value
attribute-measured: differential viability (reversal) (%)
# output: bare number, implied unit %

Looking up Cc1occc1-c1nnc(SCC(=O)N2CCc3ccccc32)o1 , I see its differential viability (reversal) listed as 0.62

Looking up Cc1ccc(C(C)n2cc(C(=O)NCCN3CCN(C)CC3)nn2)cc1 (centres undefined) , I see its differential viability (reversal) listed as -5

Looking up COC(=O)c1c(N)n(-c2cc(OC)cc(OC)c2)c2nc3ccccc3nc12 , I see its differential viability (reversal) listed as 10.6

Looking up O=C(O)c1c(Cl)c(Cl)c(Cl)c(Cl)c1C(=O)N1CCOCC1 , I see its differential viability (reversal) listed as 2.91

Looking up CCCOc1nc(N)c(C#N)c(-c2ccccc2F)c1C#N , I see its differential viability (reversal) listed as 29

Looking up CCC(C)n1[nH]c(=O)c2c(C)cc(C)nc21 (centres undefined) , I see its differential viability (reversal) listed as 9.86

Looking up COc1cccc(N2CCN(C(=O)C3C4C=CC5(CN(Cc6ccccc6Cl)C(=O)C35)O4)CC2)c1 (centres undefined) , I see its differential viability (reversal) listed as 9.13

Looking up CC1Cc2nc(SCC(=O)Nc3ccccc3F)n(C)c(=O)c2S1 (centres undefined) , I see its differential viability (reversal) listed as -0.345

Looking up Cc1nn(Cc2ccc(C(=O)NC3CCCCC3)o2)c(C)c1Br , I see its differential viability (reversal) listed as -5.8

Looking up COc1cc2c(cc1OC)C(c1cc(OC)c(OC)c(OC)c1)NCC2 (centres undefined) , I see its differential viability (reversal) listed as -0.03

Looking up COc1cccc(NC(=O)N[C@@H](Cc2ccccc2)C(=O)O)c1 , I see its differential viability (reversal) listed as 19.6

Looking up Cc1cc(C)nc(NC(=O)c2ccc(OC(C)C)cc2)n1 , I see its differential viability (reversal) listed as 14.3

Looking up O=c1cnnc(NCc2ccccc2)[nH]1 , I see its differential viability (reversal) listed as 11.8

Looking up CN(c1ccccc1)S(=O)(=O)c1ccc(C(=O)OCC(=O)N2CCOCC2)cc1 , I see its differential viability (reversal) listed as 21.5

Looking up CCCn1c(NC(=O)C2COc3ccccc3O2)nc2ccccc21 (centres undefined) , I see its differential viability (reversal) listed as -13.7

Looking up Cc1ccc(-c2cc(C(=O)N3CCCC3)no2)cc1 , I see its differential viability (reversal) listed as 2

Looking up COc1ccc(C2CC(=O)c3cnc(NC(=O)c4ccccc4OC)nc3C2)c(OC)c1 (centres undefined) , I see its differential viability (reversal) listed as -5.78

Looking up Cc1cnnc2c1-c1nonc1CC2 , I see its differential viability (reversal) listed as 15.2

Looking up N#CC1=C(N)Oc2n[nH]c(-c3ccncc3)c2C1c1ccsc1 (centres undefined) , I see its differential viability (reversal) listed as -6.48

Looking up COCCNC(=O)C(C)OC(=O)c1nsc(Cl)c1Cl (centres undefined) , I see its differential viability (reversal) listed as 4.84

Looking up CCOc1ccc(C(=O)N(CN2CCCC2=O)c2ccc(C)cc2)cc1 , I see its differential viability (reversal) listed as 7.87

Looking up Cc1cc(C)nc(SCC(=O)Nc2ncc3c(n2)CCCC3=O)n1 , I see its differential viability (reversal) listed as 12.5

Looking up COc1ccccc1S(=O)(=O)n1cc(Cc2ccccc2)c(N)n1 , I see its differential viability (reversal) listed as 5.54

Looking up COCc1cc(C)c2c(N)c(C#N)sc2n1 , I see its differential viability (reversal) listed as 15.3

###

- assay-overview: reducers of endogenous Her2 protein level, primary screen, SKBR3 breast tumor cells, AlphaScreen, ATP viability (AID 461);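 note: percent of carrier control wells set as 100% viability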
- particulars: 18-24 h, measured here: SKBR3 viability, ATP luminescence, at 10 µM
attribute-measured: viability (%)
# output: bare number, implied unit %

Looking up CC(=O)N1CCc2cc(S(=O)(=O)NC(C(=O)NCc3ccccc3)C(C)C)ccc21 (configuration not stated) , I see its viability listed as 97

Looking up Fc1ccccc1-c1nc(NCCCN2CCOCC2)c2ccccc2n1 , I see its viability listed as 94

Looking up O=C(CCCCCn1c(SCc2ccncc2)nc2ccccc2c1=O)NCc1ccco1 , I see its viability listed as 80.5

Looking up Cc1nc(SCc2ccc(Br)cc2)[nH]c(=O)c1C , I see its viability listed as 83.5

Looking up COc1ccc(-c2cc3nc(C)c(CCC(=O)NCc4ccco4)c(C)n3n2)c(OC)c1 , I see its viability listed as 103

Looking up COC(=O)CCC(=O)Nc1cccc(Cl)c1 , I see its viability listed as 118

Looking up Cc1nnc(SCC(=O)N2CCN(S(=O)(=O)c3ccccc3)CC2)[nH]c1=O , I see its viability listed as 109

Looking up CCOC(=O)C(C)n1cnc2c(nnn2Cc2ccc(C)cc2)c1=O (configuration not stated) , I see its viability listed as 116

Looking up CCOC(=O)c1cc2cc(F)ccc2nc1C , I see its viability listed as 103

Looking up CCOC(=O)CNC(=O)c1c(C)nn(-c2ccccc2)c1Cl , I see its viability listed as 98.5

Looking up Cc1cc(C)n2nc3nc(N4CCCCC4)nc(-c4ccco4)c3c2n1 , I see its viability listed as 81.5

Looking up CCC(C)NC(=O)c1ccccc1NC(=O)C(C)N(c1ccccc1)S(C)(=O)=O (configuration not stated) , I see its viability listed as 93

Looking up Cc1ccc(-c2nn(C)c(=O)c3ccccc23)cc1S(=O)(=O)N1CCOCC1 , I see its viability listed as 77

Looking up C/C(=N\O)C(=O)NCc1ccccn1 , I see its viability listed as 102

Looking up O=C1CC(C2CCCO2)C(=O)N1Cc1ccccc1 (configuration not stated) , I see its viability listed as 98

Looking up COC(=O)c1ccc(Cl)c(NC(C)=O)c1 , I see its viability listed as 108

Looking up O=c1c2c(nc3nc(COc4ccccc4)[nH]n13)CCC2 , I see its viability listed as 103

Looking up COc1ccccc1OCCOc1ccccc1/C=N/n1cnnc1 , I see its viability listed as 81.5

Looking up O=C(COc1ccccc1F)NC1CC1 , I see its viability listed as 94.5

Looking up CCOc1cc(C(=O)Nc2ccon2)cc(OCC)c1OCC , I see its viability listed as 100

Looking up COc1ccccc1NC(=O)NC1(C(=O)N2CCC(O)CC2)CCCCC1 , I see its viability listed as 103

Looking up CCCn1c(SCC(=O)N2CCCc3ccccc32)nnc1-c1ccccn1 , I see its viability listed as 84.5

Looking up O=S(=O)(Nc1ccc(Cc2ccncc2)cc1)N1CCCC1 , I see its viability listed as 88

Looking up CC(C)(C)c1cc(C(=S)N2CCN(CCO)CC2)cc(C(C)(C)C)c1O , I see its viability listed as 123

Looking up CCOC(=O)c1nnc(-c2ccccc2)o1 , I see its viability listed as 101

Looking up C/C=C/c1ccc(OCCn2cncn2)c(OC)c1 , I see its viability listed as 98.5

Looking up CC1=Nn2c(nnc2-c2cc(-c3ccccc3)n[nH]2)SC1 , I see its viability listed as 97.5

Looking up CC(C)(CO)NC(=O)CCCOc1ccc(Cl)cc1Cl , I see its viability listed as 97

Looking up C=Cn1c(C(=O)O)cc(CC)c1-c1ccccc1 , I see its viability listed as 96

Looking up Cc1ccc(Cc2c(C)nc3c(C(=O)O)cnn3c2C)cc1 , I see its viability listed as 93.5

Looking up COc1ccc(OC)c(CNC(=O)COc2cc(=O)n(C)c3ccccc23)c1 , I see its viability listed as 82

Looking up O=C(NCc1cccs1)c1cc2c(s1)-c1ccccc1OC2 , I see its viability listed as 96

Looking up O=C(c1ccco1)N1CCN(S(=O)(=O)c2ccc3c(c2)CCN3C(=O)C2CCC2)CC1 , I see its viability listed as 81.5

Looking up CCOc1ccc(C(=O)Nc2ccc(N3CCN(C)CC3)cc2)cc1Br , I see its viability listed as 114

Looking up O=C(c1ccc(Cl)c(Cl)c1)N1CCOCC1 , I see its viability listed as 102

Looking up COc1cc(OC)cc(OCC(O)Cn2cnc(-c3ccccc3)c2)c1 (configuration not stated) , I see its viability listed as 90

Looking up Cc1ccc(S(=O)(=O)NCC2CCC(C(=O)NCCCN3CCOCC3)CC2)cc1 (configuration not stated) , I see its viability listed as 89.5

Looking up COc1cc(Br)cc(/C=N/c2ncn[nH]2)c1O , I see its viability listed as 134

Looking up O=C(Nc1cc(Cl)ccc1Cl)c1noc2c1CCCC2 , I see its viability listed as 87.5

Looking up CCSc1nc2c(c(=O)n1CC)SC(C)C2 (configuration not stated) , I see its viability listed as 102

Looking up CC(=O)N1CCN(S(=O)(=O)c2cccc(C(=O)Nc3ccc4c(c3)CCC4)c2)CC1 , I see its viability listed as 76.5

Looking up O=C(Nc1ccc(Cc2ccc(NC(=O)N3CCOCC3)cc2)cc1)N1CCOCC1 , I see its viability listed as 97

Looking up CCOC(=O)C1CCN(C(=O)c2ccc(OC)cc2OC)CC1 , I see its viability listed as 102

Looking up CC(=O)c1c(C)nc(C)nc1NC(=O)Cc1ccccc1 , I see its viability listed as 106

Looking up COc1ccc(C(=O)Nc2ccc(S(=O)(=O)NC(C)=O)cc2)cc1 , I see its viability listed as 120

Looking up CN=C(Nc1cc(C)nn1-c1ccccc1)c1ccccc1 , I see its viability listed as 93

Looking up CCC(=O)OCCn1c(=O)c2cc3c(=O)n(CCOC(=O)CC)c(=O)c3cc2c1=O , I see its viability listed as 99
